assayed target: human GLP-1 receptor (human, UniProt P43220 24-463)
method: cell-based or functional assay
observable: cAMP EC50, HEK-293 cells stably overexpressing human GLP-1 R (nM)

[[record]]
binder = "YXQGTXTSDYSIXLDKKAQXAFIEFLLEXHPSSGAPPPS (Aib at 2; αMeF(2F) at 6; αMeL at 13; Lys 17 side chain AEEAc-AEEAc-γGlu-CO(CH2)18COOH; Aib at 20; Aib at 29; C-terminal amide (NH2)) [Compound 20]"
quantity_unit = "nM"
reading = 0.01

[[record]]
binder = "YXQGTXTSDYSIXLDKKAQXAFIEFLLETGPSSGAPPPS (Aib at 2; αMeF(2F) at 6; αMeL at 13; Lys 17 side chain AEEAc-AEEAc-γGlu-CO(CH2)18COOH; Aib at 20; C-terminal amide (NH2)) [Compound 19]"
quantity_unit = "nM"
reading = 0.009

[[record]]
binder = "YXQGTXTSDYSIFLDKKAQXAFIEFLLETGPSSGAPPPS (Aib at 2; αMeF at 6; Lys 17 side chain AEEAc-AEEAc-γGlu-CO(CH2)18COOH; Aib at 20; C-terminal amide (NH2)) [Compound 12]"
quantity_unit = "nM"
reading = 0.014

[[record]]
binder = "YXQGTXTSDYSIXLDKKAQXAFIEYLLETGPSSGQPPPS (Aib at 2; αMeF(2F) at 6; αMeL at 13; Lys 17 side chain AEEAc-AEEAc-γGlu-CO(CH2)18COOH; Aib at 20; C-terminal amide (NH2)) [Compound 23]"
quantity_unit = "nM"
reading = 0.005

[[record]]
binder = "YXQGTXTSDYSIFLDKKAQXAFIEYLLEXHPSSGAPPXS (Aib at 2; αMeF(2F) at 6; Lys 17 side chain AEEAc-AEEAc-γGlu-CO(CH2)18COOH; Aib at 20; Aib at 29; Ac3c at 38; C-terminal amide (NH2)) [Compound 32]"
quantity_unit = "nM"
reading = 0.014

